# Tested on: HCT-116
# experimental-protocol: Antiproliferative activity against human HCT116 cells after 72 hrs by MTT assay
# Assay type: functional, cell-based
# condition-context: HCT-116, 72 h
pIC50: −log10 of the molar value.

smiles	pIC50
O=C(N/N=C1/c2cccnc2-n2cccc21)c1ccc(O)cc1	5.60
O=C(N/N=C1/c2cc(Br)cnc2-n2cccc21)c1ccc(O)cc1	5.78
O=C(N/N=C1/c2cc(Br)cnc2-n2cccc21)c1ccccc1	5.76
O=C(N/N=C1/c2cc(Br)cnc2-n2cccc21)c1ccncc1	6.96
Nc1ccc(C(=O)N/N=C2/c3cc(Br)cnc3-n3cccc32)cc1	6.64
O=C(N/N=C1/c2cc(Br)cnc2-n2cccc21)c1ccco1	6.77
O=C(N/N=C1/c2cccnc2-n2cccc21)c1cccs1	6.34

All values here come from ChEMBL document CHEMBL4265925.
